Below, each of the sequences is paired with its reported duplex formation free energy ΔG50 value.
Assay: duplex formation free energy ΔG50 (Van't Hoff fit of HRM Tm); higher = less stable duplex
Settings: temperature for dG: 50 °C; NaCl: 500 mM (unadjusted); backbone: PO-PO (both strands phosphodiester DNA)
Use kcal/mol as the unit, but write only the number.

Some entries whose results are on file:
sequence `AGAGCGCCCTGCTGCC` , duplex formation free energy ΔG50 observed: -15.8

sequence `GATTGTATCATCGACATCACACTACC` , duplex formation free energy ΔG50 observed: -18.3

sequence `GCAGGAGCCGCGACCTG` , duplex formation free energy ΔG50 observed: -17.2

sequence `AGCACGGTGGTACAACA` , duplex formation free energy ΔG50 observed: -12.8

sequence `GCCCGAGCATGACTGCG` , duplex formation free energy ΔG50 observed: -16.3

Now for the sequence whose duplex formation free energy ΔG50 we want.
sequence `GAACTGCCACTACCAA` , duplex formation free energy ΔG50 observed: -12.3

====

Assay: duplex formation entropy ΔS (Van't Hoff fit of HRM Tm); higher = smaller entropy loss on duplex formation
Conditions: temperature for dG: 50 °C; NaCl: 500 mM (unadjusted); backbone: PO-PO (both strands phosphodiester DNA)
Class label 1: duplex formation entropy ΔS at least -200 cal/mol/K. Class label 0: duplex formation entropy ΔS below -200 cal/mol/K.

Study these solved cases before continuing.
Data request: Reported duplex formation entropy ΔS at or above -200 cal/mol/K? `CGTGTGGATAATTAGCT`
Data returned: label 0

Data request: Reported duplex formation entropy ΔS at or above -200 cal/mol/K? `TAGACGCGGCCTCTTTCC`
Data returned: label 0

Data request: Reported duplex formation entropy ΔS at or above -200 cal/mol/K? `GCCCGAGCATGACTGCG`
Data returned: label 0

Data request: Reported duplex formation entropy ΔS at or above -200 cal/mol/K? `CTCGGAGGCCCCATTTA`
Data returned: label 1

Data request: Reported duplex formation entropy ΔS at or above -200 cal/mol/K? `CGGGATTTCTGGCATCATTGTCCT`
Data returned: label 0

Data request: Reported duplex formation entropy ΔS at or above -200 cal/mol/K? `CAAGCCTCGATTTTGT`
Data returned: label 1

Now consider a different sequence.
Data request: Reported duplex formation entropy ΔS at or above -200 cal/mol/K? `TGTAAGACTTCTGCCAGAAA`
Data returned: label 0

====

Assay: duplex formation entropy ΔS (Van't Hoff fit of HRM Tm); higher = smaller entropy loss on duplex formation
Settings: temperature for dG: 50 °C; NaCl: 500 mM (unadjusted); backbone: PS-PS (both strands fully phosphorothioate)
Below, each of the sequences is paired with its reported duplex formation entropy ΔS value.
Use cal/mol/K as the unit, but write only the number.

Some entries whose results are on file:
sequence `CTCAGAGTAGAGCCGA` , duplex formation entropy ΔS observed: -182

sequence `GAGCAGAAGGGGTTGT` , duplex formation entropy ΔS observed: -167

sequence `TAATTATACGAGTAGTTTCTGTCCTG` , duplex formation entropy ΔS observed: -245

sequence `GCTGAACTAACCACCA` , duplex formation entropy ΔS observed: -188

sequence `CTAAACTGTTATAGCCGG` , duplex formation entropy ΔS observed: -166

More entries:
sequence `GTGAAACAATGCTGTAG` , duplex formation entropy ΔS observed: -197

sequence `CGATTTTGTCAAGCCT` , duplex formation entropy ΔS observed: -179

sequence `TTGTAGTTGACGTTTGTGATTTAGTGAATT` , duplex formation entropy ΔS observed: -335

sequence `CACAGCGACATGTATGG` , duplex formation entropy ΔS observed: -216

sequence `CTACCAGCGGCGCCGTT` , duplex formation entropy ΔS observed: -185

sequence `TTCGCGGTCTCCATTA` , duplex formation entropy ΔS observed: -157

sequence `GCCCGAGCATGACTGCG` , duplex formation entropy ΔS observed: -231

Origin of values: the supplement of paper PMC9116672
